system: RIVA; assay: growth inhibition by drug alone (1 - RLU/untreated control) (fraction); higher = stronger inhibition; settings: 100 nM; time (day): 6; 177Lu-lilotomab satetraxetan 0 ug/ml
test readout: growth inhibition by drug alone
Please give only the number in your answer, with no unit.

Ask | Which growth inhibition by drug alone is listed for N[C@@H](Cc1ccc(N(CCCl)CCCl)cc1)C(=O)O ?
Reply | -0.265

Ask | Which growth inhibition by drug alone is listed for C=C1C[C@@H]2[C@H](CC[C@]3(C)C(=O)CC[C@@H]23)[C@@]2(C)C=CC(=O)C=C12 ?
Reply | -0.228

Ask | Which growth inhibition by drug alone is listed for CC(O)(CS(=O)(=O)c1ccc(F)cc1)C(=O)Nc1ccc(C#N)c(C(F)(F)F)c1 (configuration not stated) [Bicalutamide (Casodex)] ?
Reply | -0.0827

---
Ask | Which growth inhibition by drug alone is listed for O=C(O)c1nn(Cc2ccc(Cl)cc2Cl)c2ccccc12 ?
Reply | -0.381

Ask | Which growth inhibition by drug alone is listed for CC1=C2C[C@H]3[C@@H](CC=C4C[C@@H](O)CC[C@@]43C)[C@@H]2CC[C@]12O[C@@H]1C[C@H](C)CN[C@H]1[C@H]2C ?
Reply | -0.131

Ask | Which growth inhibition by drug alone is listed for C[C@]12CCC(=O)C(O)=C1CC[C@@H]1[C@@H]2CC[C@]2(C)C(=O)CC[C@@H]12 ?
Reply | -0.445

Ask | Which growth inhibition by drug alone is listed for CCC1(c2ccc(N)cc2)CCC(=O)NC1=O (configuration not stated) [Aminoglutethimide (Cytadren)] ?
Reply | -0.688

Ask | Which growth inhibition by drug alone is listed for O=C(Oc1ccc([N+](=O)[O-])cc1)N1CCC(C(O)(c2ccc3c(c2)OCO3)c2ccc3c(c2)OCO3)CC1 ?
Reply | -0.226

Ask | Which growth inhibition by drug alone is listed for Cn1cc(C2=C(c3cn(C4CCN(Cc5ccccn5)CC4)c4ccccc34)C(=O)NC2=O)c2ccccc21 ?
Reply | -0.414

Ask | Which growth inhibition by drug alone is listed for Cc1cc2c(C(C)C)c(O)c(O)c(C=O)c2c(O)c1-c1c(C)cc2c(C(C)C)c(O)c(O)c(C=O)c2c1O ?
Reply | -0.216

Ask | Which growth inhibition by drug alone is listed for CC(C)[C@]12O[C@H]1[C@@H]1O[C@]13[C@]1(O[C@H]1C[C@H]1C4=C(CC[C@@]13C)C(=O)OC4)[C@@H]2O [Triptolide] ?
Reply | 0.967

Ask | Which growth inhibition by drug alone is listed for Cc1ccccc1-n1c(Cn2cnc3c(N)ncnc32)nc2cccc(C)c2c1=O ?
Reply | -0.104
